Origin of the recorded values: patent US20250129103A1

# Assay: Determination of kinetic solubility (pH 7.4)
# Type: physicochemical
# Condition parameters: phosphate buffer, pH 7.4, aqueous buffer, kinetic from dmso stock, 50 mM phosphate buffer pH 7.4, read-out: Ksol, pH 7.4
Metric name: solubility kinetic at 2 h (µg/mL)
The figure you give is taken to be in µg/mL; do not add the unit.

State the recorded solubility kinetic at 2 h for this entry: `N#CC[C@H]1CN(c2nc(OCC34CCCN3CCC4)nc3c(F)c(-c4cccc5cccc(Cl)c45)ncc23)CCN1C(=O)/C=C/CN1CCOCC1`
106

State the recorded solubility kinetic at 2 h for this entry: `N#CC[C@H]1CN(c2nc(OC[C@@]34CCCN3C[C@H](F)C4)nc3c(F)c(-c4cccc5ccc(F)c(F)c45)ncc23)CCN1C(=O)/C=C/CN1CCOCC1`
93.4

State the recorded solubility kinetic at 2 h for this entry: `N#CC[C@H]1CN(c2nc(OC[C@@]34CCCN3C[C@H](F)C4)nc3c(F)c(-c4cccc(Cl)c4C(F)(F)F)ncc23)CCN1C(=O)/C=C/CN1CCCOCC1`
124

###

# Assay: Determination of logD (1-octanol / phosphate buffer pH 7.4)
# Format: physicochemical
# Condition parameters: 1-octanol/phosphate buffer, pH 7.4, pH 7.4, 1-octanol/phosphate buffer; read-out: Log D, pH 7.4
logD values, listed per item
Just the number, please, no unit attached.

State the recorded logD for this entry: N#CC[C@H]1CN(c2nc(OC[C@@]34CCCN3C[C@H](F)C4)nc3c(F)c(-c4cccc5cccc(Cl)c45)ncc23)CCN1C(=O)/C=C/CN1CC2CCC(C1)O2 [Example 81]
3.7

State the recorded logD for this entry: N#CC[C@H]1CN(c2nc(OCC34CCCN3CCC4)nc3c2CCN(c2cccc4cccc(Cl)c24)C3)CCN1C(=O)/C=C/c1nc([C@H]2C[C@@H]2F)no1 [Compound 36]
3.98

State the recorded logD for this entry: N#CC[C@H]1CN(c2nc(OC[C@@]34CCCN3C[C@H](F)C4)nc3c(F)c(-c4cccc5ccc(F)c(Cl)c45)ncc23)CCN1C(=O)/C=C/CN1CCOC2CC21 (some centres unmarked) [Compound 160]
3.33

State the recorded logD for this entry: N#CC[C@H]1CN(c2nc(OC[C@@]34CCCN3C[C@H](F)C4)nc3c(F)c(-c4cccc5ccc(F)c(Cl)c45)ncc23)CCN1C(=O)/C=C/CN1C[C@H]2C[C@@H]1CO2 [Example 72]
3.12

State the recorded logD for this entry: Cc1nnc(/C=C/C(=O)N2CCN(c3nc(OCC45CCCN4CCC5)nc4c3CCN(c3cccc5cccc(Cl)c35)C4)C[C@@H]2CC#N)[nH]1 [Compound 29]
2.84

###

# Assay: Determination of logD (1-octanol / phosphate buffer pH 7.4)
# Assay type: physicochemical
# Condition parameters: 1-octanol/phosphate buffer, pH 7.4, pH 7.4, 1-octanol/phosphate buffer; read-out: Log D, pH 7.4
# Experimental: Preparation of phosphate buffer saturated with 1-octanol: 10 mL of 100 mM phosphate buffer (pH 7.4) was added to 100 mL of 1-octanol. The mixture was shaken vigorously and left to stand at room temperature overnight. […] 149 μL of phosphate buffer saturated with 1-octanol was added into 1st sample tube. […] Samples of the supernatant were taken from both tubes, diluted with an appropriate LCMS buffer, and analyzed on an LCMS instrument. LogD was calculated according to the following equation.
logD values, listed per item
Just the number, please, no unit attached.

Compound	logD
CC(C)c1noc(/C=C/C(=O)N2CCN(c3nc(OC[C@@]45CCCN4C[C@H](F)C5)nc4c(F)c(-c5ccccc5C(F)F)ncc34)C[C@@H]2CC#N)n1 [Compound 152]	2.62
N#CC[C@H]1CN(c2nc(OC[C@@]34CCCN3C[C@H](F)C4)nc3c(F)c(-c4cccc5cccc(Cl)c45)ncc23)CCN1C(=O)/C=C/CN1CCS(=O)(=O)CC1 [Compound 207]	2.4
N#CC[C@H]1CN(c2nc(OC[C@@]34CCCN3C[C@H](F)C4)nc3c(F)c(-c4cccc(Cl)c4C(F)(F)F)ncc23)CCN1C(=O)/C=C/CN1C[C@@H]2C[C@H]1CO2 [Compound 293]	2.54
C#Cc1c(F)ccc2cccc(-c3ncc4c(N5CCN(C(=O)/C=C/CN6CC7CCC(C6)O7)[C@@H](CC#N)C5)nc(OC[C@@]56CCCN5C[C@H](F)C6)nc4c3F)c12 [Compound 285]	3.54
CC1(c2noc(/C=C/C(=O)N3CCN(c4nc(OCC56CCCN5CCC6)nc5c(F)c(-c6cccc7cccc(Cl)c67)ncc45)C[C@@H]3CC#N)n2)CC1 [Compound 118]	3.24

State the recorded logD for this entry: Cn1cnc(/C=C/C(=O)N2CCN(c3nc(OCC45CCCN4CCC5)nc4c3CCN(c3cccc5cccc(Cl)c35)C4)C[C@@H]2CC#N)c1 [Compound 22]
2.92

State the recorded logD for this entry: N#CC[C@H]1CN(c2nc(OC[C@@]34CCCN3C[C@H](F)C4)nc3c(F)c(-c4cccc(Cl)c4C4CC4)ncc23)CCN1C(=O)/C=C/CN1CCCOCC1 [Compound 112]
3.28

State the recorded logD for this entry: N#CC[C@H]1CN(c2nc(OCC34CCCN3CCC4)nc3c2CCN(c2cccc4ccc(F)c(Cl)c24)C3)CCN1C(=O)/C=C/CN1CCOCC1 [Compound 50]
2.27

State the recorded logD for this entry: N#CC[C@H]1CN(c2nc(OC[C@@]34CCCN3C[C@H](F)C4)nc3c(F)c(-c4cccc5ccc(F)c(Cl)c45)ncc23)CCN1C(=O)/C=C/CN1CC2CCC(C1)O2 [Example 78]
3.64
